Target: recombinant CD73 (Homo sapiens (Human), UniProt P21589)
Sequence (P21589 27-547): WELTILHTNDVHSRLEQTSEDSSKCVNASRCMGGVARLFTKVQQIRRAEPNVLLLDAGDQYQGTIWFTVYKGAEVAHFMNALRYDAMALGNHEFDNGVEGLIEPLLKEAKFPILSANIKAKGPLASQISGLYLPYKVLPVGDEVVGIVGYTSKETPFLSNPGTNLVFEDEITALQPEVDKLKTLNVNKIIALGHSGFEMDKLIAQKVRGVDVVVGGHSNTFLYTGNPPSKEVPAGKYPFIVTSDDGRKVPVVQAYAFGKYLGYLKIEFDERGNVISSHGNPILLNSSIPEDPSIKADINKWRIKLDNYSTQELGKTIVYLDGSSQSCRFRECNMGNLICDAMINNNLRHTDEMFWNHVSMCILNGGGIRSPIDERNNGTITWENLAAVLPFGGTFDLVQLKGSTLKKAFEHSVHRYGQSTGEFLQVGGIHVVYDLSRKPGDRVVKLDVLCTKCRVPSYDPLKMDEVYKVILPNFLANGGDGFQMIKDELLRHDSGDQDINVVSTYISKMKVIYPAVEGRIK
Procedure Text: Inhibition of soluble recombinant CD73 enzyme activity in vitro (AMP hydrolysis, Malachite Green phosphate detection)
Format: biochemical
Particulars: recombinant CD73 0.5 nM, AMP 50 μM, 30 minutes at room temperature
# reported IC50; entries follow
Property Measured: IC50 (µM)

- Compound: "CCOC(=O)C(Cc1ccc(-c2ccccc2)cc1)(OC[C@H]1O[C@@H](n2cnc3c(N)nc(Cl)nc32)[C@@H](F)[C@@H]1O)C(=O)O (single isomer, unassigned) [84 Isomer 1]"
  Unit Descriptor: "µM"
  Test Result: 7.26
- Compound: "CCOC(=O)C(Cc1ccc(-c2ccccc2)cc1)(OC[C@H]1O[C@@H](n2cnc3c(N)nc(Cl)nc32)[C@@H](F)[C@@H]1O)C(=O)O (single isomer, unassigned) [84 Isomer 2]"
  Unit Descriptor: "µM"
  Test Result: 8.26
- Compound: "Nc1nc(Cl)nc2c1ncn2[C@@H]1O[C@H](COC(Cc2ccc(OC(F)(F)F)cc2)(C(=O)O)c2nn[nH]n2)[C@@H](O)[C@H]1O (stereo partly drawn) [Example 194]"
  Unit Descriptor: "µM"
  Test Result: 0.273

====

Target: cell-bound CD73 on SK-MEL-28 cells (Homo sapiens (Human))
Procedure Text: Inhibition of endogenous, cell-bound CD73 enzyme activity in SK-MEL-28 cells (AMP hydrolysis, Malachite Green)
Format: cell-based
Particulars: 100 μM AMP, 30 minutes at room temperature
pIC50: −log10 of the molar value.
Values of pIC50 greater than or equal to 6 map to y; values below map to n.

- Molecule: "Nc1nc(Cl)nc2c1ncn2[C@@H]1O[C@H](COC(Cc2csc(C(=O)O)c2)(C(=O)O)c2nn[nH]n2)[C@@H](O)[C@H]1O (stereo partly drawn)"
  Target: "cell-bound CD73 on SK-MEL-28 cells (Homo sapiens (Human))"
  Assigned Class: "n"
- Molecule: "Nc1nc(Cl)nc2c1ncn2[C@@H]1O[C@H](COC(Cc2cccnc2)(C(=O)O)c2nn[nH]n2)[C@@H](O)[C@H]1O (stereo partly drawn)"
  Target: "cell-bound CD73 on SK-MEL-28 cells (Homo sapiens (Human))"
  Assigned Class: "n"
- Molecule: "Nc1nc(Cl)nc2c1ncn2[C@@H]1O[C@H](COC(Cc2ccc(OCc3ccccc3)cc2)(C(=O)O)c2nn[nH]n2)[C@@H](O)[C@H]1O (stereo partly drawn)"
  Target: "cell-bound CD73 on SK-MEL-28 cells (Homo sapiens (Human))"
  Assigned Class: "y"
- Molecule: "Nc1nc(Cl)nc2c1ncn2[C@@H]1O[C@H](COC(Cc2ccsc2)(C(=O)O)c2nn[nH]n2)[C@@H](O)[C@H]1O (stereo partly drawn)"
  Target: "cell-bound CD73 on SK-MEL-28 cells (Homo sapiens (Human))"
  Assigned Class: "y"

====

Target: recombinant CD73 (Homo sapiens (Human))
Procedure Text: Inhibition of soluble recombinant CD73 enzyme activity in vitro (AMP hydrolysis, Malachite Green phosphate detection)
Assay type: biochemical
Particulars: recombinant CD73 0.5 nM, AMP 50 μM, 30 minutes at room temperature
# reported IC50; entries follow

- Compound: "Nc1nc(Cl)nc2c1ncn2[C@@H]1O[C@H](COC(Cc2cccnc2)(C(=O)O)c2nn[nH]n2)[C@@H](O)[C@H]1O (stereo partly shown)"
  Readout Qualifier: "="
  IC50 [µM]: 1.18
- Compound: "Nc1nc(Cl)nc2c1ncn2[C@@H]1O[C@H](COC(Cc2ccccc2)(C(=O)O)C(=O)O)[C@H](N)[C@H]1O"
  Readout Qualifier: ">"
  IC50 [µM]: 10
- Compound: "Nc1nc(Cl)nc2c1ncn2[C@@H]1O[C@H](COC(Cc2ccc(OC(F)(F)F)cc2)(C(=O)O)C(=O)O)[C@@H](O)[C@@H]1F"
  Readout Qualifier: "="
  IC50 [µM]: 0.057
- Compound: "N#Cc1cccc(CC(OC[C@H]2O[C@@H](n3cnc4c(N)nc(Cl)nc43)[C@@H](F)[C@@H]2O)(C(=O)O)C(=O)O)c1"
  Readout Qualifier: "="
  IC50 [µM]: 0.531

====

Target: cell-bound CD73 on SK-MEL-28 cells (Homo sapiens (Human), UniProt P21589)
Sequence (P21589 27-574): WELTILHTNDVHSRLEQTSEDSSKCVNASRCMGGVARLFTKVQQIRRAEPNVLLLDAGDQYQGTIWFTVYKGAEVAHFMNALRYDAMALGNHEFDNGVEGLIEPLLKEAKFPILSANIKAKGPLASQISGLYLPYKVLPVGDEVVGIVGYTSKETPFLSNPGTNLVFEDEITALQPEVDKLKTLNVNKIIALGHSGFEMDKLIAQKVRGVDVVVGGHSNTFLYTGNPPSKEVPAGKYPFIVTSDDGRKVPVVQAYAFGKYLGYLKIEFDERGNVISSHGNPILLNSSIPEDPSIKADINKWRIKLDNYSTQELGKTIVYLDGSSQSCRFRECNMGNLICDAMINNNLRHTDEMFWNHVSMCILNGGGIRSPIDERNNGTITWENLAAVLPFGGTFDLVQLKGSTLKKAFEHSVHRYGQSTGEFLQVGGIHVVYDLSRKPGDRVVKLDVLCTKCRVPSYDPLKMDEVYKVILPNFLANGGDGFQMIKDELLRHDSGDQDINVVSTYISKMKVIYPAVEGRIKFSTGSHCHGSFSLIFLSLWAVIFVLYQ
Procedure Text: Inhibition of endogenous, cell-bound CD73 enzyme activity in SK-MEL-28 cells (AMP hydrolysis, Malachite Green)
Format: cell-based
Particulars: 100 μM AMP, 30 minutes at room temperature
pIC50: −log10 of the molar value.

- Compound: "Nc1nc(Cl)nc2c1ncn2[C@@H]1O[C@H](COC(Cc2ccc(C(=O)O)cc2)(C(=O)O)c2nn[nH]n2)[C@@H](O)[C@H]1O (stereo partly drawn)"
  pIC50: 5.61
- Compound: "Nc1nc(Cl)nc2c1ncn2[C@@H]1O[C@H](COC(Cc2ccc(-c3ccccc3C(=O)O)cc2)(C(=O)O)c2nn[nH]n2)[C@@H](O)[C@H]1O (stereo partly drawn)"
  pIC50: 6.96
- Compound: "Nc1nc(Cl)nc2c1ncn2[C@@H]1O[C@H](COC(Cc2ccc(C(F)(F)F)cc2)(C(=O)O)c2nn[nH]n2)[C@@H](O)[C@H]1O (stereo partly drawn) [Example 191]"
  pIC50: 6.67
- Compound: "Nc1nc(Cl)nc2c1ncn2[C@@H]1O[C@H](COC(Cc2ccc(OC(F)(F)F)cc2)(C(=O)O)c2nn[nH]n2)[C@@H](O)[C@H]1O (stereo partly drawn)"
  pIC50: 5.77
- Compound: "Nc1nc(Cl)nc2c1ncn2[C@@H]1O[C@H](COC(Cc2ccccc2)(C(=O)O)c2nn[nH]n2)[C@H](O)[C@H]1O (stereo partly drawn)"
  pIC50: 5.32
- Compound: "Nc1nc(Cl)nc2c1ncn2[C@@H]1O[C@H](COC(Cc2nnn[nH]2)(C(=O)O)C(=O)O)[C@@H](O)[C@@H]1F"
  pIC50: 5.99

====

Target: recombinant CD73 (Homo sapiens (Human))
Procedure Text: Inhibition of soluble recombinant CD73 enzyme activity in vitro (AMP hydrolysis, Malachite Green phosphate detection)
Format: biochemical
Particulars: recombinant CD73 0.5 nM, AMP 50 μM, 30 minutes at room temperature
# reported IC50; entries follow

- Molecule: "Nc1nc(Cl)nc2c1ncn2[C@@H]1O[C@H](COC(Cc2cccc(OC(F)(F)F)c2)(C(=O)O)c2nn[nH]n2)[C@@H](O)[C@H]1O (stereo partly drawn) [Example 199]"
  Unit Descriptor: "nM"
  Readout Qualifier: "="
  IC50: 118
- Molecule: "Nc1ncc(-c2ccc(CC(OC[C@H]3O[C@@H](n4cnc5c(N)nc(Cl)nc54)[C@@H](F)[C@@H]3O)(C(=O)O)C(=O)O)cc2)cn1 [Example 159]"
  Unit Descriptor: "nM"
  Readout Qualifier: "="
  IC50: 76
- Molecule: "COc1cccc(CC(OC[C@H]2O[C@@H](n3cnc4c(N)nc(Cl)nc43)[C@@H](F)[C@@H]2O)(C(=O)O)C(=O)O)c1"
  Unit Descriptor: "nM"
  Readout Qualifier: "="
  IC50: 839
- Molecule: "CCOC(=O)C(Cc1ccc(C(=O)OC)cc1)(OC[C@H]1O[C@@H](n2cnc3c(N)nc(Cl)nc32)[C@H](O)[C@@H]1O)c1nn[nH]n1 (stereo partly drawn) [Example 195]"
  Unit Descriptor: "nM"
  Readout Qualifier: ">"
  IC50: 50000
- Molecule: "Nc1nc(Cl)nc2c1ncn2[C@@H]1O[C@H](COC(Cc2ccc(N3CCCC3=O)cc2)(C(=O)O)C(=O)O)[C@@H](O)[C@@H]1F [Example 162]"
  Unit Descriptor: "nM"
  Readout Qualifier: "="
  IC50: 54
- Molecule: "CCOC(=O)c1ccccc1-c1ccc(CC(OC[C@H]2O[C@@H](n3cnc4c(N)nc(Cl)nc43)[C@@H](F)[C@@H]2O)(C(=O)O)C(=O)O)cc1 [Example 175]"
  Unit Descriptor: "nM"
  Readout Qualifier: "="
  IC50: 18

====

Target: recombinant CD73 (Homo sapiens (Human), UniProt P21589)
Procedure Text: Inhibition of soluble recombinant CD73 enzyme activity in vitro (AMP hydrolysis, Malachite Green phosphate detection)
Assay type: biochemical
Particulars: recombinant CD73 0.5 nM, AMP 50 μM, 30 minutes at room temperature
pIC50: −log10 of the molar value.
# reported pIC50; entries follow

- Compound: "C=C1[C@@H](O)[C@H](n2cnc3c(N)nc(Cl)nc32)O[C@@H]1COC(Cc1ccccc1)(C(=O)O)C(=O)O"
  pIC50: 5.74
- Compound: "Nc1nc(Cl)nc2c1ncn2[C@@H]1O[C@H](COC(Cc2ccc(OCc3ccccc3)cc2)(C(=O)O)c2nn[nH]n2)[C@@H](O)[C@H]1O (stereo partly drawn)"
  pIC50: 7.54
- Compound: "N#Cc1ccc(CC(OC[C@H]2O[C@@H](n3cnc4c(N)nc(Cl)nc43)[C@@H](F)[C@@H]2O)(C(=O)O)C(=O)O)cc1"
  pIC50: 7.01
- Compound: "Nc1cccc(CC(OC[C@H]2O[C@@H](n3cnc4c(N)nc(Cl)nc43)[C@@H](F)[C@@H]2O)(C(=O)O)C(=O)O)c1"
  pIC50: 6.66
- Compound: "Nc1nc(Cl)nc2c1ncn2[C@@H]1O[C@H](COC(Cc2ccc(C(=O)O)cc2)(C(=O)O)c2nn[nH]n2)[C@@H](O)[C@H]1O (stereo partly drawn)"
  pIC50: 5.61
- Compound: "CC(C)(C)n1nnc(C(Cc2ccccc2)(OC[C@H]2O[C@@H](n3cnc4c(N)nc(Cl)nc43)[C@H](O)[C@H]2O)C(=O)O)n1 (stereo partly drawn)"
  pIC50: 5.11
